# Protocol: Cytotoxicity against human HCT116/VM46 cells assessed as reduction in cell viability after 72 hrs by phosphatase assay
# Type: cell-based
# Experimental Setup: HCT-116/VM46, 72 h
Assay Metric: IC50 (nM)
Record the value in nM, omitting the unit from your answer.

Reference set (3 entries):
>>> value_reported("CC[C@]1(NC(=O)c2ccc(OC)c(F)c2)C[C@H]2CN(CCc3c([nH]c4ccccc34)[C@@](C(=O)OC)(c3cc4c(cc3OC)N(C)[C@H]3[C@@](O)(C(=O)OC)[C@H](OC(C)=O)[C@]5(CC)C=CCN6CC[C@]43[C@@H]65)C2)C1")
30
>>> value_reported("CC[C@]1(NC(=O)C2Cc3ccccc3C2)C[C@H]2CN(CCc3c([nH]c4ccccc34)[C@@](C(=O)OC)(c3cc4c(cc3OC)N(C)[C@H]3[C@@](O)(C(=O)OC)[C@H](OC(C)=O)[C@]5(CC)C=CCN6CC[C@]43[C@@H]65)C2)C1")
80
>>> value_reported("CC[C@]1(NC(=O)/C=C/c2ccccn2)C[C@H]2CN(CCc3c([nH]c4ccccc34)[C@@](C(=O)OC)(c3cc4c(cc3OC)N(C)[C@H]3[C@@](O)(C(=O)OC)[C@H](OC(C)=O)[C@]5(CC)C=CCN6CC[C@]43[C@@H]65)C2)C1")
25

From here, focus on the item given below.
Lookup result for `CC[C@]1(NS(=O)(=O)c2cccc3c(N(C)C)cccc23)C[C@H]2CN(CCc3c([nH]c4ccccc34)[C@@](C(=O)OC)(c3cc4c(cc3OC)N(C)[C@H]3[C@@](O)(C(=O)OC)[C@H](OC(C)=O)[C@]5(CC)C=CCN6CC[C@]43[C@@H]65)C2)C1` ; measured IC50: 60

---

# Protocol: Cytotoxicity against human HCT116/VM46 cells assessed as reduction in cell viability after 72 hrs by phosphatase assay
# Format: cell-based
# Experimental Setup: HCT-116/VM46, 72 h
Measured pIC50 by item
To interpret pIC50, take it as minus log10 of a concentration measured in moles per litre.

>>> value_reported("CC[C@]1(NC(=O)/C=C/c2ccncc2)C[C@H]2CN(CCc3c([nH]c4ccccc34)[C@@](C(=O)OC)(c3cc4c(cc3OC)N(C)[C@H]3[C@@](O)(C(=O)OC)[C@H](OC(C)=O)[C@]5(CC)C=CCN6CC[C@]43[C@@H]65)C2)C1")
7.30

Now let's try a different one.
Recorded result, `CC[C@]1(NC(=O)c2cc(C)c(OC)c(C)c2)C[C@H]2CN(CCc3c([nH]c4ccccc34)[C@@](C(=O)OC)(c3cc4c(cc3OC)N(C)[C@H]3[C@@](O)(C(=O)OC)[C@H](OC(C)=O)[C@]5(CC)C=CCN6CC[C@]43[C@@H]65)C2)C1` , pIC50: 8.46

---

# Protocol: Cytotoxicity against human HCT116/VM46 cells assessed as reduction in cell viability after 72 hrs by phosphatase assay
# Format: cell-based
# Experimental Setup: HCT-116/VM46, 72 h
Assay Metric: pIC50
Schema: pIC50 number; meaning minus log10 of the concentration expressed in molar units.

>>> value_reported("CC[C@]1(NC(=O)c2ccc3c(c2)OCCO3)C[C@H]2CN(CCc3c([nH]c4ccccc34)[C@@](C(=O)OC)(c3cc4c(cc3OC)N(C)[C@H]3[C@@](O)(C(=O)OC)[C@H](OC(C)=O)[C@]5(CC)C=CCN6CC[C@]43[C@@H]65)C2)C1")
8.28

Now turn to the next molecule.
In plain terms, `CC[C@]1(NC(=O)c2ccc(N)c(C)c2)C[C@H]2CN(CCc3c([nH]c4ccccc34)[C@@](C(=O)OC)(c3cc4c(cc3OC)N(C)[C@H]3[C@@](O)(C(=O)OC)[C@H](OC(C)=O)[C@]5(CC)C=CCN6CC[C@]43[C@@H]65)C2)C1` has a documented pIC50 of 8.11

These data points were gathered from ChEMBL document CHEMBL4017512.
